- MEASURED_ON: T1, human IL-2Rβ (human, UniProt P14784 27-240, limits assumed)
- T1 construct: recombinant protein, coated or immobilised; also called hu IL-2R; IL-2R beta
- T1 sequence: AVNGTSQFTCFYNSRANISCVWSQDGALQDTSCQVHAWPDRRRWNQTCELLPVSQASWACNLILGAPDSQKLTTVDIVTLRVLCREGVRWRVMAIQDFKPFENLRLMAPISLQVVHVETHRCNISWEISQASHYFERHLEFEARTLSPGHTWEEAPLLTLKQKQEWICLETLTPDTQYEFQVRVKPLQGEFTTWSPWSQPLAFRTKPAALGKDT
- EXPERIMENTAL_PROTOCOL: P.E. ELISA, coated protein
// reported P.E. binding ELISA OD per item
READOUT_NAME: P.E. binding ELISA OD (OD450 nm)

>>> value("FJ1427_P035MP02A03 (VHH, soluble VHH in periplasmic extract; also called clone nr) VHH: QVQLVESGGGLVQPGGSLRLSCAASGFTFSNYAMSWVRQAPGKGLEWVSSITGAGRGTYYAESVKGRFTISRDNDKNTLYLQMNSLKPEDTAVYYCAKYDSSTFYPPTPARGIADRGQGTRVTVSS")
0.207
>>> value("FJ1427_P035MP02B01 (VHH, soluble VHH in periplasmic extract; also called clone nr; 98) VHH: QVQLVESGGGLVQTGGSLRLSCAASGSQFINDVMGWYRQVPGKQRELVADMDDTGSTKYADSVKGRFTILRDSVKNTAYLQMSNLKPEDTGVYYCKAGLWIKGRHFDYWGQGTQVTVSS")
0.271
>>> value("FJ1427_P035MP02D06 (VHH, soluble VHH in periplasmic extract; also called clone nr; 140) VHH: EVQLVESGGGLVQTGGSLRLSCAASGSQFINDVMGWYRQVPGKQRELVADMDDTGSTKYADSVKGRFTILRDSVKNTAYLQMSNLKPEDTGVYYCKAGLWIKGRHSDYWGQGTQVTVSS")
0.298
>>> value("FJ1427_P035MP02D04 (VHH, soluble VHH in periplasmic extract; also called clone nr) VHH: QVQLVESGGGLVQTGGSLRLSCAVSGSRFISDVMGWYRQVPGKQRELVADMADGGSAKYADSVKGRFSILRDSVKNTVYLQMSSLKPEDTGIYYCKAGLWIAGRHSDYWGQGTQVTVSS")
0.447
